The origin of these recorded values is paper PMC5358776.

# Tested on: Human fibroblasts (HFF)
# stated-conditions: MTT, 72 h, 37°C, 1–100 μM; mean of 3 independent experiments in triplicate
pIC50: −log10 of the molar value. Where no end group is shown, it is not given here.
parameter-measured: pIC50

query: Fill in reported pIC50 for this entry: FLSGIVGMLGKLF-NH2 [SHa, temporin-SHa]
result: < 4.00

----------
# Tested on: L. infantum (axenic) amastigotes
# stated-conditions: axenic) amastigotes, 96 h
Where no end group is shown, it is not given here.
parameter-measured: pIC50
Worth noting: pIC50 values are minus log10 of concentrations stated in mol/L.

query: Fill in reported pIC50 for this entry: FLKGIVGMLGKLF-NH2 [[K^3]SHa, [K^3]temporin-SHa]
result: 4.70
